Measured pIC50 by item
assay_target: PDK1 (Homo sapiens (Human), UniProt O15530)
Sequence (O15530 51-359): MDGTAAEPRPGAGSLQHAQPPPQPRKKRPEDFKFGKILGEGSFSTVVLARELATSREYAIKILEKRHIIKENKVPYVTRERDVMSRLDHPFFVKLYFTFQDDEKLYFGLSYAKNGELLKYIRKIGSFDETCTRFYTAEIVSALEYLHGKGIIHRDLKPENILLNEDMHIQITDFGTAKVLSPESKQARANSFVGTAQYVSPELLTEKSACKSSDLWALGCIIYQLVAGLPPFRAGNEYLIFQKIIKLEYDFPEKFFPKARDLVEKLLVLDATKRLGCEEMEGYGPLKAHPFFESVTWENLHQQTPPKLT
procedure_details: PDK1 kinase assay (coupled PDK1/AKT/FAM-crosstide assay, IMAP fluorescence polarization)
Assay type: biochemical
experimental_parameters: inhibition of PDK1 in vitro
pIC50: −log10 of the molar value.

Entry CNC(=O)c1cc(-c2ccc(CNc3ncc(C#N)cc3C(=O)N[C@@H](C)c3ccc(F)cc3)cc2)cnc1N [Example 203] has what pIC50?
> 7.00

Entry CNc1ncc2cc(O[C@@H](C)CNc3ncc(C#N)cc3C(=O)N[C@@H](C)c3ccc(F)cc3)ccc2n1 [Example 253] has what pIC50?
5.30 to 6.00

Entry C[C@H](NC(=O)c1nc(C#N)cnc1NCc1ccc(-c2ccc3c(N)ncnn23)cc1)c1ccc(F)c(F)c1 [Example 181] has what pIC50?
> 7.00

Entry COCCCc1nc(-c2ccc(CNc3ncc(C#N)cc3C(=O)N[C@@H](C)c3ccc(F)cc3)cc2)cnc1N [Example 92] has what pIC50?
> 7.00

Entry C[C@H](NC(=O)c1cc(C#N)cnc1Nc1ccc(-c2c[nH]c3ncnc(N)c23)cc1)c1ccc(F)cc1 [Example 436] has what pIC50?
6.00 to 7.00

Entry CCN(CC)CCNC(=O)c1cc(-c2ccc(CNc3ncc(C#N)cc3C(=O)N[C@@H](C)c3ccc(F)cc3)cc2)cnc1N [Example 118] has what pIC50?
> 7.00

Entry CN1CCN(Cc2ccc(NC(=O)c3cc(C(F)(F)F)cnc3NCc3ccc(-c4cnc5[nH]nc(N)c5c4)cc3)cc2)CC1 [Example 285] has what pIC50?
5.30 to 6.00
